Biological target: T1, CD3 on Jurkat cells (UniProt P04234 22-171; P07766 23-207)
T1 construct: whole, on cells
T1 sequence (P04234 22-171, chain 1 of 2): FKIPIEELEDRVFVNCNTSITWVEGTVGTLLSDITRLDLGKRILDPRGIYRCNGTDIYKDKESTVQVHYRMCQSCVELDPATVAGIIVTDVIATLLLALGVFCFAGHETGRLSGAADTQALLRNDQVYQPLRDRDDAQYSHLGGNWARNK
T1 sequence (P07766 23-207, chain 2 of 2): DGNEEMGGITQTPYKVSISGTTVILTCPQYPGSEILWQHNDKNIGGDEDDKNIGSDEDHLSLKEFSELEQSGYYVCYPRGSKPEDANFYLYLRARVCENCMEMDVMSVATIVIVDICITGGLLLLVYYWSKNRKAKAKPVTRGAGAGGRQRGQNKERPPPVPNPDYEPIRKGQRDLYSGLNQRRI
Assay: flow cytometry on Jurkat cells
ASSAY_READOUT: EC50

INSERT INTO assay_data (binder, assay_readout, assay_result) VALUES
  ('anti-CD3D&E antibody D12A4, full-length human IgG1 (L234A/L235A/N297A)/kappa (antibody, V domains shown) VH: EVQLVESGGGLVQPGRSLRLSCAASGFTFGDYAMHWVRQAPGKGLEWVSGISWNHGHIGYADSVKGRFTISRDNAKKSLYLQMNSLRAEDTALYYCAKDNSGYGHYYYGMDVWGQGTTVTVAS VL: EIVMTQSPATLSVSPGERATLSCRASRSVSRNLAWYQQKPGQAPRLLIYGASTKPTGIPARFSGSGSGTEFTLTISSLQSEDFAVYYCQHYTNWPLRFGGGTKVEIKR', 'EC50', '0.11 µg/mL'),
  ('anti-CD3D&E antibody 7-1A12, full-length human IgG1 (L234A/L235A/N297A)/kappa (antibody, V domains shown) VH: EVQLVESGGGLVQPGRSLRLSCAASGFTFSDYTMHWVRQAPGKGLEWVSGISWNTGTIGYADSVKGRFTISRDNAKKSLYLQMNSLRAEDTALYYCAKDNSGYGHYYFGMDVWGQGTTVTVAS VL: EIVMTQSPATLSVSPGERATLSCRASQSVSRNVAWYQQKPGQAPRLLIYGASTRQTGIPARFSGSGSGTEFTLTISSLQSEDFAVYYCQSYINWPLQFGGGTKVEIKR', 'EC50', '0.119 µg/mL'),
  ('anti-CD3D&E antibody D8E5, full-length human IgG1 (L234A/L235A/N297A)/kappa (antibody, V domains shown) VH: EVQLVESGGGLVQPGRSLRLSCAASGFTFDSYSMHWVRQAPGKGLEWVSGISWNSGSLGYADSVKGRFTISRDNAKKSLYLQMNSLRAEDTALYYCAKDRSGYGHYYYGMDVWGQGTTVTVAS VL: EIVMTQSPATLSVSPGERATLSCRASRSVSLNVAWYQQKPGQAPRLLIYGASTKYTGIPARFSGSGSGTEFTLTISSLQSEDFAVYYCQQYINWPLTFGGGTKVEIKR', 'EC50', '0.0411 µg/mL'),
  ('anti-CD3D&E antibody D1E9, full-length human IgG1 (L234A/L235A/N297A)/kappa (antibody, V domains shown) VH: EVQLVESGGGLVQPGRSLRLSCAASGFTFDDFAMHWVRQAPGKGLEWVSGITWNSGSVGYADSVKGRFTISRDNAKKSLYLQMNSLRAEDTALYYCAKDRSGYGHYYYGMDVWGQGTTVTVAS VL: EIVMTQSPATLSVSPGERATLSCRASTSVSHNVAWYQQKPGQAPRLLIYGASTKVTGIPARFSGSGSGTEFTLTISSLQSEDFAVYYCQHYINWPLTFGGGTKVEIKR', 'EC50', '0.0837 µg/mL');
